Exercise: for every item that follows, state its recorded IC50.
# Measured Target: HIS-KRAS (G12V) (Homo sapiens, UniProt P01116, G12V)
# Sequence (P01116 1-188 isoform P01116-2 G12V): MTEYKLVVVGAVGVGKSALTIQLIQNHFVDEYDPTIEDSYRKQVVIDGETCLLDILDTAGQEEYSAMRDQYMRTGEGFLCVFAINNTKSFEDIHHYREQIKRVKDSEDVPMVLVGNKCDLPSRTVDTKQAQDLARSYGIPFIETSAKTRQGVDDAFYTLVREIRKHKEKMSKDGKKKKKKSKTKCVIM
# Procedure Summary: KRas G12V binding assay (TR-FRET, SOS1-mediated BODIPY FL GTP nucleotide exchange)
# Conditions: GDP-loaded HIS-KRAS (G12V) 3 nM, 1 hour pre-incubation with compound, 4 hours with SOS1 ExD and BODIPY FL GTP at 25° C
# Protocol: Biological Example 3: KRas G12V Binding Assay HIS-KRAS (G12V) was diluted to 5 uM in EDTA buffer (20 mM HEPES, pH 7.4, 50 mM NaCl, 10 mM EDTA, 0.01% (v/v) Tween-20) and incubated for 30 min at 25° C. […] TR-FRET signals were then read on Tecan Spark multimode microplate reader. […] TR-FRET ratios for each individual wells were calculated by equation: TR-FRET ratio=(Signal F515/Signal F486)*10000. Then the data were analyzed using a 4-parameter logistic model to calculate IC50 values. […]
# number only, unit nM dropped from output

What value of measured IC50 is listed for C#Cc1c(F)ccc2cc(O)cc(-c3ncc4c(N5C[C@H]6CC[C@@H](C5)N6C(=O)C=C)nc(N5CC(N(C)C)C5)nc4c3F)c12 [Example 4] ?
95.8

For C#Cc1c(F)ccc2cc(O)cc(-c3ncc4c(N5C[C@H]6CC[C@@H](C5)N6C(=O)C=C)nc(OCC56CCCN5CCC6)nc4c3F)c12 [Example 5] , what is its reported IC50?
0.19

IC50 for C#Cc1c(F)ccc2cc(O)cc(-c3ncc4c(N5CCCC[C@H](NC(=O)C=C)C5)nc(OCC56CCCN5CCC6)nc4c3F)c12 [Example 9] ?
3.15
